assay system: T1, his-tagged B7-H3 (UniProt Q5ZPR3-2 29-245, limits assumed)
T1 construct: also called CD276; not shown: His tag
T1 sequence (looked up): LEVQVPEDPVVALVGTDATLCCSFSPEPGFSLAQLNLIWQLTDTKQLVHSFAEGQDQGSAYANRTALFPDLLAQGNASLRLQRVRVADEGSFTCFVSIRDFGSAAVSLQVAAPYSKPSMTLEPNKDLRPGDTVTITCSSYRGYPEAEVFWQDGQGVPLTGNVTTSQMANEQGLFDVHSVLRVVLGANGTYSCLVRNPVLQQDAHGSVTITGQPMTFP
assay: SPR, Carterra LSA; binder captured by anti-human Fc, his-tagged B7-H3 injected
# Lookup of reported kon keyed by entry
Write the value in M⁻¹ s⁻¹ as a bare number.

>  <binder>
40633p1.1.G7 scFv-Fc (scFv, V domains shown, Tested as scFv-Fc supernatant) VH: EVQLLESGGGLVQPGGSLRLSCAASGFTFSGSAMNWVRQAPGKGLEWVSAINSGGTTIYYADSVKGRFTVSRDNSKNTLYLQMNSLRAEDTAVYYCVKLDFYYGMDVWGEGTTVTVSS VL: QSVVTQPPSASGTPGQRVTVSCSGSSSNVGSKYVQWYQQLPGTAPKLLIYATDRRPSGVPDRFSGSKSGTSASLAISGLQSEDEADYYCASWDDSLNAWVFGGGTKLTVL

>  <u>
M⁻¹ s⁻¹

>  <kon>
411000

$$$$
>  <binder>
40511p1.1.A1 scFv-Fc (scFv, V domains shown, Tested as scFv-Fc supernatant) VH: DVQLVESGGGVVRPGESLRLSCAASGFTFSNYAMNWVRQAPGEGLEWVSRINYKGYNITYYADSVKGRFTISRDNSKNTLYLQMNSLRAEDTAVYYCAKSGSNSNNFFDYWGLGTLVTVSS VL: EIVLTQSPGTLSVSPGERATLSCRASQSVNSKLAWYQQRPGQAPRLLIYDASSRATGIPDRFSGSGSGTDFTLTISRLEPEDFAVYYCQQYKNWPPLTFGGGTKVEIK

>  <u>
M⁻¹ s⁻¹

>  <kon>
93000

$$$$

*Q* State, in one line, measured kon of 40511p1.1.D8 scFv-Fc (scFv, V domains shown) VH: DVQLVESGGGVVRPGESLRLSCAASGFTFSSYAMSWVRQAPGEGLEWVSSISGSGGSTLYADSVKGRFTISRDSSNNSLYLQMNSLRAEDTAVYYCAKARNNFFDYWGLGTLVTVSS VL: EIVLTQSPGTLTLSPGERATLSCRASRSILTSLAWYQQRPGQAPRLLIYGANSRATGIPDRFSGSGSGTEFTLTISSLQSEDFAVYYCQQYYDWLTITFGGGTKVEIK
*A* 340000

*Q* Return kon for the following binder: 40633p1.1.A11 scFv-Fc (scFv, V domains shown) VH: EVQLLESGGDLVQPGGSLRLSCAASGFTFNTYWMNWVRQAPGKGLEWVAGINSKGGVTYYADSVKGRFTISRDNSKNTLYLQMNSLRAEDTAVYYCADWNDYDIMDVWGQGTTVTVSS VL: QSVLTQPPSASGTPGQTITISCSGSSSNVGRRTVNWYQQLPGTAPKLLIYTNAQRPSGVPDRFSGSKSGTSASLAISGLQSEDEADYYCATWDDSLNAWVFGGGTKLTVL
*A* 714000

*Q* State its kon: 40633p1.1.G10 scFv-Fc (scFv, V domains shown) VH: EVQLLESGGGLVEPGGSLRLSCAASGFSFSSYGMHWVRQAPGKGLDWVAVINGEGSGTYYADSVKGRFTISRDNSKSTLYLQMNSLRAEDTAVYYCTKYYYNYAMDVWGQGTTVTVSS VL: QSVLTQPPSASGTPGQRVTISCSGSRTDIGTTSVNWYQQLPGTAPKLLIYQSHQRPSGVPDRFSGSKSGTSASLAISGLQSEDEADYYCASWDASQNTWVFGGGTKLTVL
*A* 349000
